System: L1210 cells
Experiment: Inhibition of growth of L1210 cells in culture (growth fraction)
Assay type: cell-based, murine
Settings: 10 μM
measured-quantity: potentiation of SMETH by other metal ions

Here are 4 compounds together with their reported answers.
[Ni+2] | ineffective
[Zn+2] | ineffective
[Co+2] | ineffective
[Cr+3] | ineffective

# lookup: potentiation of SMETH by other metal ions of [Mn+2] ineffective
